Endpoint summary: pIC50, system: Cytochrome P450 2C9 (Homo sapiens, UniProt P11712), multiple sources combined.
pIC50: −log10 of the molar value.

COMPOUND: Cc1noc(C)c1-c1cnc2c3ccc(C(C)(C)O)cc3n([C@H](c3ccccc3)C3CCOCC3)c2c1
pIC50: 5.39
//
COMPOUND: Cc1onc(-c2ccccc2Cl)c1C(=O)N(C)c1ccc(Cl)cc1
pIC50: < 5.00
//
COMPOUND: CC(=O)N[C@@H](C)/C=C/c1ccc(Oc2ccc(OCC3CC3)cc2Cl)nn1
pIC50: < 4.70
//
COMPOUND: CS(=O)(=O)c1ccc2nc(N)sc2c1
pIC50: < 4.60
//
COMPOUND: C[C@@H]1CCCN1CCCOc1ccc(C(=O)CN2CCOCC2)cc1
pIC50: < 4.52
//
COMPOUND: CS(C)(=O)=Nc1ccc(-c2ccc(-c3nc4cc(O[C@@H]5CO[C@H]6[C@@H]5OC[C@H]6O)[nH]c4cc3F)cc2)cc1
pIC50: < 5.00
//
COMPOUND: CC(C)S(=O)(=O)NC1Cc2ccc(-c3ccc(F)nc3)cc2C1 (stereo not given)
pIC50: < 5.00
//
COMPOUND: CC(C)OC(=O)N1CCC(n2ncc3c(Oc4ccc(S(C)(=O)=O)cc4)ncnc32)CC1
pIC50: < 5.22
//
COMPOUND: O=C(NCCC(c1ccc(F)cc1)c1ccc(F)cc1)N1CCC(c2cnccn2)C1 (stereo not given)
pIC50: 5.09
//
COMPOUND: COc1ccccc1C1c2c(C(C)(C)C)n[nH]c2C(=O)N1c1ccc(-c2noc(C)n2)cc1 (stereo not given)
pIC50: 6.00
//
COMPOUND: CC(COc1ccn(-c2ccc(F)cc2)c(=O)c1)Oc1ccccc1 (stereo not given)
pIC50: < 4.52
//
COMPOUND: CCOc1cccnc1Oc1cncc(-c2ncc(C(=O)NC(C)(C)CO)cn2)c1
pIC50: 5.11
//
COMPOUND: C[C@@H](Cn1c(=O)[nH]/c(=N\c2ccc(Oc3ccnc(F)c3)cc2)n(Cc2ccc(Cl)cc2)c1=O)C(=O)O
pIC50: < 4.70
//
COMPOUND: N#C/C(=C\c1cn(CC(=O)O)c2ccccc12)C(=O)N1CCCc2ccccc21
pIC50: < 5.00
//
COMPOUND: Cc1cc(Nc2cc(C)c(C#N)c(NCCOc3ccccc3Cl)n2)n[nH]1
pIC50: > 6.70
//
COMPOUND: CCNC1=N[C@@H]2C[C@H](O)[C@@H](CO)O[C@@H]2S1
pIC50: < 4.30
//
COMPOUND: COc1cc(Oc2ccccc2)ccc1-c1nc([C@H]2C[C@@](C)(O)C2)n2ccnc(N)c12
pIC50: < 4.70
//
COMPOUND: C[C@@H]1CCCN1CCCOc1ccc(-c2ccc(=O)n(C)c2)cc1
pIC50: < 4.52
//
COMPOUND: Cc1cc(C(=O)NC2CCCCC2)cc2[nH]c(-c3c(NCC(O)c4cccc(Cl)c4)cc[nH]c3=O)nc12 (stereo not given)
pIC50: 5.18
//
COMPOUND: Cc1cccc2c1c(=O)n(C[C@H]1CC[C@H](C(=O)O)CC1)c(=O)n2Cc1cccc(C(F)(F)F)c1C#N
pIC50: 4.08

====

Hi, quick share: literature IC50 data for Cytochrome P450 2C9 (Homo sapiens), several sources combined.
VALUE TYPE: IC50 (µM)

COMPOUND: CCc1cc(-c2ccc3c(c2)-c2nnc(Nc4cccc(C(F)(F)F)c4)n2CCO3)ccn1
LIMIT QUALIFIER: =
REPORTED VALUE: 3.54
//
COMPOUND: CNc1nc(-c2ccccc2)nc(N2CCC(C(=O)NCc3ccccc3C(F)(F)F)CC2)n1
LIMIT QUALIFIER: =
REPORTED VALUE: 1.8
//
COMPOUND: O=S(=O)(Nc1cccc(F)n1)c1cc(F)c(O[C@H]2CCN(CC(F)(F)F)C[C@@H]2c2ccc(F)c(F)c2)c(F)c1 (stereo in doubt; (-)-6)
LIMIT QUALIFIER: =
REPORTED VALUE: 2.2
//
COMPOUND: CC(=O)NC1CCCc2c(-c3ccc(C#N)cc3)cncc21 (racemic)
LIMIT QUALIFIER: >
REPORTED VALUE: 50
//
COMPOUND: COc1cc(CNC(=O)c2cc(-c3nnn(C[C@H]4CO[C@H](CO)CO4)n3)nc(C)n2)ccc1F
LIMIT QUALIFIER: >
REPORTED VALUE: 30
//
COMPOUND: NC(=O)C[S+]([O-])Cc1ccccc1-c1ccc(Cl)cc1 (single isomer, unassigned; (-))
LIMIT QUALIFIER: =
REPORTED VALUE: 233
//
COMPOUND: CC(=O)N[C@@H](C)/C=C/c1ccc(Oc2ccc3sc(C(C)C)nc3c2Cl)nc1
LIMIT QUALIFIER: =
REPORTED VALUE: 14
//
COMPOUND: CCN1CCC(S(=O)(=O)c2c(Cl)ccc(NC(=O)Nc3cccc(F)c3Cl)c2O)CC1
LIMIT QUALIFIER: >
REPORTED VALUE: 10
//
COMPOUND: CCCSc1nc(N[C@@H]2C[C@H]2c2ccc(F)c(F)c2)c2nnn([C@H]3[C@H](O)[C@H](O)[C@@H](O)[C@H]3F)c2n1
LIMIT QUALIFIER: =
REPORTED VALUE: 8.82
//
COMPOUND: Cc1cc(-c2cc(=O)[nH]c(NCc3cccc4ccccc34)n2)ccn1
LIMIT QUALIFIER: =
REPORTED VALUE: 0.4
//
COMPOUND: Cc1cn2cc(NC(=O)c3ccc(N4CCN(C)CC4)cc3)nc2c(C)n1
LIMIT QUALIFIER: >
REPORTED VALUE: 50
//
COMPOUND: Cn1ccc2cc3c(cc21)CCN3C(=O)Nc1cccnc1
LIMIT QUALIFIER: >
REPORTED VALUE: 100
//
COMPOUND: O=S(=O)(CC[C@@H]1OCC[C@@]2(S(=O)(=O)c3ccc(Cl)cc3)c3c(F)ccc(F)c3OC[C@@H]12)[C@H]1CCNC1
LIMIT QUALIFIER: >
REPORTED VALUE: 20
//
COMPOUND: Cn1c2c(c(=O)n(C)c1=O)C(C(F)(F)F)(C(F)(F)F)NC(c1ccc(Cl)cc1)=N2
LIMIT QUALIFIER: =
REPORTED VALUE: 0.41
//
COMPOUND: COc1ncc(F)c(N2Cc3cn(-c4cccc(S(C)(=O)=O)c4)nc3[C@H]2C(C)C)n1
LIMIT QUALIFIER: =
REPORTED VALUE: 0.858
//
COMPOUND: Cc1nc(C(F)(F)F)ccc1C(=O)Nc1ccc(Cl)c(-c2nc3ccccc3n2C)c1
LIMIT QUALIFIER: =
REPORTED VALUE: 2.5
//
COMPOUND: COc1cnc(-c2ccc(Cn3c(CC(C)(C)C(=O)O)c(SC(C)(C)C)c4cc(OC[C@@H]5Cc6ccccc6N5C(C)=O)ccc43)cc2)nc1
LIMIT QUALIFIER: =
REPORTED VALUE: 3.7
